Tested on: anti-estriol-3-sulfate antibody immobilized on Sepharose 4B
protocol-description: Cross-reaction of various steroids in the radioimmunoassay (50% inhibition of labeled estriol-3-sulfate binding)
Set-up: species or system guinea pig
condition-info: mass ratio of non-labeled estriol-3-sulfate to each steroid required for 50% inhibition of labeled estriol-3-sulfate binding
Structures can show the parent of a compound that is named as a salt.
Would you kindly list Cross-reaction (%) for each of these compounds?

C[C@]12CC[C@@H]3c4ccc(O)c(O)c4CC[C@H]3[C@@H]1CCC2=O [4-Hydroxyestrone]; < 0.001%
C[C@]12CC[C@H](OS(=O)(=O)O)CC1=CC[C@@H]1[C@@H]2CC[C@]2(C)C(=O)CC[C@@H]12 [Dehydroepiandrosterone sulfate]; 0.077%
C[C@]12CC[C@@H]3c4ccc(O)cc4CC[C@H]3[C@@H]1C[C@@H](O)[C@@H]2O[C@@H]1O[C@H](C(=O)O)[C@@H](O)[C@H](O)[C@H]1O [Estriol-17-glucuronide]; < 0.001%
CC(C)CCC[C@@H](C)[C@H]1CC[C@H]2[C@@H]3CC=C4C[C@@H](O)CC[C@]4(C)[C@H]3CC[C@]12C; < 0.001%
C[C@]12CC[C@@H]3c4ccc(O)cc4CC[C@H]3[C@@H]1C[C@H](O)[C@@H]2O [16-Epiestriol]; < 0.001%

# per-item lookup of Cross-reaction (%); items listed below
1. C[C@]12CC[C@@H]3c4ccc(OS(=O)(=O)O)cc4CC[C@H]3[C@@H]1CCC2=O [Estrone sulfate]
2. C[C@]12CC[C@@H]3c4ccc(O)cc4CC[C@H]3[C@@H]1C[C@@H](O)[C@@H]2O
3. C[C@]12CC[C@H]3[C@@H](CCC4=CC(=O)CC[C@@]43C)[C@@H]1CC[C@@H]2OS(=O)(=O)O [Testosterone sulfate]
4. C[C@]12CC[C@H](O)CC1=CC[C@@H]1[C@@H]2CC[C@]2(C)C(=O)CC[C@@H]12 [Dehydroepiandrosterone]

["0.060%", "0.033%", "0.004%", "< 0.001%"]

====

Tested on: anti-estriol-3-sulfate antibody immobilized on Sepharose 4B
protocol-description: Cross-reaction of various steroids in the radioimmunoassay (50% inhibition of labeled estriol-3-sulfate binding)
Design: species or system guinea pig
condition-info: mass ratio of non-labeled estriol-3-sulfate to each steroid required for 50% inhibition of labeled estriol-3-sulfate binding
endpoint-name: Cross-reaction (%)

C[C@]12CC[C@@H]3c4ccc(O)cc4CC[C@H]3[C@@H]1C[C@@H](O[C@@H]1O[C@H](C(=O)O)[C@@H](O)[C@H](O)[C@H]1O)[C@@H]2O [Estriol-16-glucuronide]; < 0.001%
C[C@]12CC[C@@H]3c4ccc(O[C@@H]5O[C@H](C(=O)O)[C@@H](O)[C@H](O)[C@H]5O)cc4CC[C@H]3[C@@H]1CCC2=O [Estrone glucuronide]; < 0.001%

Give Cross-reaction (%) for all compounds that follow.
1. CC(=O)[C@H]1CC[C@H]2[C@@H]3CCC4=CC(=O)CC[C@]4(C)[C@H]3CC[C@]12C
2. C[C@]12CC[C@H]3[C@@H](CCC4=CC(=O)CC[C@@]43C)[C@@H]1CC[C@@H]2O

["< 0.001%", "< 0.001%"]
